Test: Rat pharmacokinetics
Type: in vivo
Details: male, Sprague-Dawley, plasma, PO, 10 mg/kg free base, AUC0-24 hr, read-out: AUClast (hr*ng/ml), AUC0-24 hr
measuredMetric: AUC(0-t) (ng·h/mL)
Express your answer in ng·h/mL, writing the number without its unit.

**Q:** State the recorded AUC(0-t) for this entry: O[C@@H]1[C@@H](Cc2ccccc2)CNC[C@H]1O
**A:** 1200

###

Assay: Rat pharmacokinetics
Assay type: in vivo
Conditions: male, Sprague-Dawley, plasma, IV, 3 mg/kg free base, AUC0-12 hr, read-out: AUClast (hr*ng/ml), AUC0-12 hr
measuredMetric: AUC(0-t) (ng·h/mL)
Express your answer in ng·h/mL, writing the number without its unit.

**Q:** State the recorded AUC(0-t) for this entry: O[C@@H]1[C@@H](Cc2ccccc2)CNC[C@H]1O [(3R,4R,5S)-5-benzyl-piperidine-3,4-diol]
**A:** 592

**Q:** State the recorded AUC(0-t) for this entry: Cl.O[C@H]1[C@H](O)CNC[C@@H]1C(F)F [Cmpd 6]
**A:** 2040

###

Test: Rat pharmacokinetics
Format: in vivo
Settings: male, Sprague-Dawley, plasma, PO, 30 mg/kg free base, read-out: % F
Known bioavailability of a selection of compounds
Express your answer in %, writing the number without its unit.

compound: O[C@@H]1[C@@H](Cc2ccccc2)CNC[C@H]1O [(3R,4R,5S)-5-benzyl-piperidine-3,4-diol]
bioavailability (%): 62.3

Now consider a different compound.
**Q:** State the recorded bioavailability for this entry: Cl.O[C@H]1[C@H](O)CNC[C@@H]1C(F)F [Cmpd 6]
**A:** 101

###

Known bioavailability of a selection of compounds
Assay: Rat pharmacokinetics
Assay type: in vivo
Settings: male, Sprague-Dawley, plasma, PO, 100 mg/kg free base, read-out: % F
Express your answer in %, writing the number without its unit.

structureAsSmiles: O[C@@H]1[C@@H](Cc2ccccc2)CNC[C@H]1O
u: %
bioavailability: 68.3

**Q:** State the recorded bioavailability for this entry: Cl.O[C@H]1[C@H](O)CNC[C@@H]1C(F)F
**A:** 121

###

Known Ki of a selection of molecules
Molecular target: recombinant human GCase (rhGCase; Cerezyme®) (Homo sapiens (Human), UniProt P04062, R534H)
Sequence (P04062 40-536 R534H limits assumed): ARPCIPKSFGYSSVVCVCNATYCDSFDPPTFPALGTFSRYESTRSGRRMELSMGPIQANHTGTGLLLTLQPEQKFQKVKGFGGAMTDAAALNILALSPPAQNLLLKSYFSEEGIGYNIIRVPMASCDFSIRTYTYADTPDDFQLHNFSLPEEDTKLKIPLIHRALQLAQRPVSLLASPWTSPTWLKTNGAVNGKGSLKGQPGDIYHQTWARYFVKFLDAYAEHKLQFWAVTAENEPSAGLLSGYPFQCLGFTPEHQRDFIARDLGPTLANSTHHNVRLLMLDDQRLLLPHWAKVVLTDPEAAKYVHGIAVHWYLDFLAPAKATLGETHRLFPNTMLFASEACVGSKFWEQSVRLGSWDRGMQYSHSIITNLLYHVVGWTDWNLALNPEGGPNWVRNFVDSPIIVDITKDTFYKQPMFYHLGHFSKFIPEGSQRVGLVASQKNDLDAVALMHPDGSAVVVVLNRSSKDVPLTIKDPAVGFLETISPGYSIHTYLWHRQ
Test: In vitro enzyme inhibition assay (4-MU-β-D-Glc substrate), inhibition constants
Assay type: biochemical
Settings: pH 5.2; repeated in Table 3B; read-out: Ki pH 5.2
Your reply should be a number followed by the unit it is expressed in.

Some entries whose results are on file:
molecule: CC[C@@H](F)[C@H]1CNC[C@@H](O)[C@@H]1O.Cl [hydrochloride]
result: 121 nM

molecule: CC(C)(O)[C@H]1CNC[C@@H](O)[C@@H]1O
result: 97 nM

molecule: O[C@@H]1[C@@H](Cc2ccccc2)CNC[C@H]1O
result: 273 nM

Now consider a different molecule.
**Q:** State the recorded Ki for this entry: O[C@@H]1[C@@H]([C@H](O)c2ccccc2)CNC[C@H]1O
**A:** 1360 nM

###

Experiment: Rat pharmacokinetics
Format: in vivo
Settings: male, Sprague-Dawley, plasma, PO, 30 mg/kg free base, read-out: Cmax
measuredMetric: Cmax (ng/mL)
Express your answer in ng/mL, writing the number without its unit.

structureAsSmiles: O[C@@H]1[C@@H](Cc2ccccc2)CNC[C@H]1O
measuredMetric: Cmax
u: ng/mL
quantitativeResult: 1700

**Q:** State the recorded Cmax for this entry: Cl.O[C@H]1[C@H](O)CNC[C@@H]1C(F)F
**A:** 10000

###

Test: Rat pharmacokinetics
Type: in vivo
Details: male, Sprague-Dawley, plasma, PO, 10 mg/kg free base, AUC0-12 hr, read-out: AUClast (hr*ng/ml), AUC0-12 hr
measuredMetric: AUC(0-t)

**Q:** State the recorded AUC(0-t) for this entry: Cl.O[C@H]1[C@H](O)CNC[C@@H]1C(F)F
**A:** 6710 ng·h/mL

###

Target: recombinant human GCase (rhGCase; Cerezyme®) (Homo sapiens (Human), UniProt P04062, R534H)
Assay: In vitro enzyme inhibition assay (4-MU-β-D-Glc substrate), inhibition constants
Assay type: biochemical
Conditions: pH 5.2; repeated in Table 3A; read-out: Ki pH 5.2
measuredMetric: Ki (µM)
Express your answer in µM, writing the number without its unit.

Some entries whose results are on file:
molecule: O[C@@H]1[C@@H]([C@H](O)c2ccccc2)CNC[C@H]1O
assayedTarget: recombinant human GCase (rhGCase; Cerezyme®) (Homo sapiens (Human), UniProt P04062, R534H)
u: µM
Ki: 1.36
//
molecule: O[C@@H]1[C@@H](Cc2ccccc2)CNC[C@H]1O
assayedTarget: recombinant human GCase (rhGCase; Cerezyme®) (Homo sapiens (Human), UniProt P04062, R534H)
u: µM
Ki: 0.273
//
molecule: CC[C@@H](F)[C@H]1CNC[C@@H](O)[C@@H]1O.Cl [hydrochloride]
assayedTarget: recombinant human GCase (rhGCase; Cerezyme®) (Homo sapiens (Human), UniProt P04062, R534H)
u: µM
Ki: 0.121

**Q:** State the recorded Ki for this entry: CC(C)(O)[C@H]1CNC[C@@H](O)[C@@H]1O
**A:** 0.097

###

Experiment: Rat pharmacokinetics
Format: in vivo
Conditions: male, Sprague-Dawley, plasma, PO, 100 mg/kg free base, AUC0-24 hr, read-out: AUClast (hr*ng/ml), AUC0-24 hr
measuredMetric: AUC(0-t) (ng·h/mL)
Express your answer in ng·h/mL, writing the number without its unit.

compound: O[C@@H]1[C@@H](Cc2ccccc2)CNC[C@H]1O [(3R,4R,5S)-5-benzyl-piperidine-3,4-diol]
quantitativeResult: 13500

**Q:** State the recorded AUC(0-t) for this entry: Cl.O[C@H]1[C@H](O)CNC[C@@H]1C(F)F [Cmpd 6]
**A:** 79400

###

Known log10 Ki of a selection of compounds
Molecular target: recombinant human GCase (rhGCase; Cerezyme®) (Homo sapiens (Human), UniProt P04062, R534H)
Assay: In vitro enzyme inhibition assay (4-MU-β-D-Glc substrate), inhibition constants
Format: biochemical
Settings: pH 7.0; Cheng-Prusoff from IC50; read-out: Ki (μM) pH 7.0
Friendly reminder: values = log10 of Ki, unit µM.

compound: C[C@@H](F)[C@@H]1CNC[C@@H](O)[C@@H]1O.Cl [Cmpd 14, Hydrochloride]
quantitativeResult: -2.40
--
compound: C[C@H](O)[C@H]1CNC[C@@H](O)[C@@H]1O (single isomer, unassigned) [Cmpd 10]
quantitativeResult: -1.46
--
compound: CC(O)[C@H]1CNC[C@@H](O)[C@@H]1O (single isomer, unassigned) [Cmpd 9]
quantitativeResult: -2.00

**Q:** State the recorded log10 Ki for this entry: O[C@@H]1[C@@H]([C@H](O)c2ccccc2)CNC[C@H]1O
**A:** -2.05

**Q:** State the recorded log10 Ki for this entry: O[C@@H]1[C@@H](Cc2ccccc2)CNC[C@H]1O [(3R,4R,5S)-5-benzyl-piperidine-3,4-diol]
**A:** -1.17

The origin of these recorded values is patent US8604206B2.
